System: phosphate uptake by rabbit intestinal Brush Border Membrane Vesicles (BBMV)
assay_explanation: 33PO4 uptake in rabbit intestinal BBMV (HTS), phosphate transporter inhibition in vitro
Assay type: biochemical
setup_conditions: Table 7, phosphate uptake, read-out: IC50
Listing of entries alongside the reported IC50.

Recorded IC50, per entry:
Cn1nc(-c2ccc(Oc3ccccc3)cc2)cc1-c1cccc(F)c1    > 1500 µM
COc1ccc(-c2cc(-c3ccco3)n(C)n2)cc1    101 to 500 µM
Cn1nc(-c2ccc(O)cc2)cc1-c1cccc(F)c1    101 to 500 µM
COc1ccc(-c2cc(-c3cccc(F)c3)n(C)n2)cc1    101 to 500 µM

Quick one: IC50 of Cn1nc(-c2ccc(Oc3ccccc3)cc2)cc1-c1ccco1 ?
> 1500 µM

Quick one: IC50 of Cn1nc(-c2ccc(O)cc2)cc1-c1ccco1 ?
> 1500 µM

###

System: phosphate uptake by rabbit intestinal Brush Border Membrane Vesicles (BBMV)
assay_explanation: 33PO4 uptake in rabbit intestinal BBMV (HTS), phosphate transporter inhibition in vitro
Assay type: biochemical
setup_conditions: Table 10, phosphate uptake, read-out: IC50
pIC50: −log10 of the molar value.
measure: pIC50

Recorded pIC50, per entry:
O=C(Nc1ccc(Cl)cc1)c1cc(Br)cc(Br)c1O [Compound 255]    3.30 to 4.00
CCOP(=O)(OCC)c1cc(Br)ccc1NC(=O)c1ccc(OC(F)(F)F)cc1 [Compound 250]    > 4.30
CCOP(=O)(OCC)c1cc(Br)ccc1NC(=O)c1c(Cl)cc(Cl)cc1Cl [Compound 270]    < 2.82
CCOP(=O)(OCC)c1cc(Br)ccc1NC(=O)c1cc(F)c(Cl)cc1Cl [Compound 262]    3.30 to 4.00
O=C(Nc1ccc(Cl)c(Cl)c1)c1cc(Cl)cc(Cl)c1O [Compound 252]    4.00 to 4.29
COc1ccc(NC(=O)c2cc3ccc4c5ccccc5[nH]c4c3cc2O)cc1 [Compound 257]    3.30 to 4.00
O=C(Nc1ccc(Br)cc1I)c1ccc(OC(F)(F)F)cc1 [Compound 271]    < 2.82
O=C(Nc1ccc(Br)cc1)c1cc(Br)cc(Br)c1 [Compound 266]    3.00 to 3.30
O=C(Nc1ccc(Br)cc1P(=O)(O)O)c1ccc(OC(F)(F)F)cc1 [Compound 268]    < 2.82
O=C(Nc1cc(C(F)(F)F)ccc1C(F)(F)F)c1cc(Br)cc(Br)c1O [Compound 256]    3.30 to 4.00

Quick one: pIC50 of O=C(Nc1ccc(Br)cc1)c1cc(Br)cc(Br)c1O [Compound 253] ?
3.30 to 4.00

Quick one: pIC50 of CCOP(=O)(OCC)c1cc(Br)ccc1NC(=O)c1ccc(OC(F)(F)F)cc1 [Compound 259] ?
3.30 to 4.00

Quick one: pIC50 of O=C(Nc1ccc(Br)cc1)c1cc(Br)cc(Br)c1OCCP(=O)(O)O [Compound 263] ?
3.30 to 4.00

Quick one: pIC50 of O=C(Nc1ccc(Oc2ccc(Cl)c3ccccc23)c(Cl)c1)c1cc(Cl)cc(Cl)c1O [Compound 258] ?
3.30 to 4.00

###

Tested on: phosphate uptake by rabbit intestinal Brush Border Membrane Vesicles (BBMV)
assay_explanation: 33PO4 uptake in rabbit intestinal BBMV (HTS), phosphate transporter inhibition in vitro
Type: biochemical
setup_conditions: Table 13, phosphate uptake, read-out: IC50
Protocol: The following example outlines the procedures required for in vitro measurement of the inhibition of phosphate uptake by rabbit intestinal Brush Border Membrane Vesicles (BBMV). […] Mucosal scrapings (2 g per tube) were thawed in a 37° C. water bath for 3 minutes and then placed on ice. […] The total protein concentration was determined by performing a Bradford Protein Assay. […]
measure: IC50

Recorded IC50, per entry:
Nc1ccc(/C=C/c2ccc(N)cc2)cc1    > 1500 µM
O=S(=O)(O)c1cc(NS(=O)(=O)c2cccc(Cl)c2)ccc1/C=C/c1ccc(NS(=O)(=O)c2cccc(Cl)c2)cc1S(=O)(=O)O    501 to 1000 µM
O=[N+]([O-])c1ccc(S(=O)(=O)Nc2ccc(/C=C/c3ccc(NS(=O)(=O)c4ccc([N+](=O)[O-])cc4)cc3S(=O)(=O)O)c(S(=O)(=O)O)c2)cc1 [Compound 294]    101 to 500 µM
O=S(=O)(O)c1cc(Nc2nc(Nc3ccccc3)nc(N(CCO)CCO)n2)ccc1/C=C/c1ccc(Nc2nc(Nc3ccccc3)nc(N(CCO)CCO)n2)cc1S(=O)(=O)O    501 to 1000 µM
O=S(=O)(O)c1cc(NS(=O)(=O)c2cccc3ccccc23)ccc1/C=C/c1ccc(NS(=O)(=O)c2cccc3ccccc23)cc1S(=O)(=O)O    501 to 1000 µM

Now consider a different molecule.
Quick one: IC50 of O=S(=O)(O)c1cc(N=C=S)ccc1/C=C/c1ccc(N=C=S)cc1S(=O)(=O)O ?
> 1500 µM

###

System: phosphate uptake by rabbit intestinal Brush Border Membrane Vesicles (BBMV)
assay_explanation: 33PO4 uptake in rabbit intestinal BBMV (HTS), phosphate transporter inhibition in vitro
Type: biochemical
setup_conditions: Table 10, phosphate uptake, read-out: IC50
pIC50: −log10 of the molar value.
Listing of entries alongside the reported pIC50.

CCOP(=O)(OCC)c1cc(Br)ccc1NC(=O)c1ccc(OC(F)(F)F)cc1 [Compound 272]    < 2.82
CCOP(=O)(OCC)c1cc(Br)ccc1NC(=O)c1cccc2ccccc12    3.00 to 3.30
O=C(Nc1ccc(Br)cc1)c1cc(Br)cc(Br)c1O [Compound 251]    4.00 to 4.29
O=C(Nc1ccccc1)c1ccccc1P(=O)(O)O    < 2.82

Now consider a different compound.
Write down the reported pIC50 of O=C(Nc1ccc(Br)cc1C(=O)O)c1ccc(Cl)c([N+](=O)[O-])c1 , test system: phosphate uptake by rabbit intestinal Brush Border Membrane Vesicles (BBMV).
3.30 to 4.00

Origin of measurements: patent US20070021509A1
